- Test system: PPARg:RXRa DBDmut IVT, anti-RXR (DBD mutation: RXRa K156A/R161A, NR concentration 270 nM, RXRa partner concentration 90 nM)
- assay protocol: PBM binding z-score (relative to random genomic background probes); higher = stronger binding; sequences stand for … in GC…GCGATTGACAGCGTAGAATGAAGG
Think of 2 as a floor: if PBM binding z-score stands on it or above, it is label 1; beneath it, label 0.

Task item: Is the recorded value of PBM binding z-score equal to or greater than 2 for this sequence? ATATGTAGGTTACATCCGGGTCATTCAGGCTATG
Reply: label 1

Task item: Is the recorded value of PBM binding z-score equal to or greater than 2 for this sequence? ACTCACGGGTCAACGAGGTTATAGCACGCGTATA
Reply: label 0

Task item: Is the recorded value of PBM binding z-score equal to or greater than 2 for this sequence? ATCGAAAGTTCGTGAGGTGAGTATACAGAAAGGC
Reply: label 0

Task item: Is the recorded value of PBM binding z-score equal to or greater than 2 for this sequence? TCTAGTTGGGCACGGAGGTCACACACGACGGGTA
Reply: label 0

Task item: Is the recorded value of PBM binding z-score equal to or greater than 2 for this sequence? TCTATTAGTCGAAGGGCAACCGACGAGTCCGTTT
Reply: label 1

Task item: Is the recorded value of PBM binding z-score equal to or greater than 2 for this sequence? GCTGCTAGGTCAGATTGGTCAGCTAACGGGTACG
Reply: label 1

Task item: Is the recorded value of PBM binding z-score equal to or greater than 2 for this sequence? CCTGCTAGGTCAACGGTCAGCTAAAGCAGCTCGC
Reply: label 1

Task item: Is the recorded value of PBM binding z-score equal to or greater than 2 for this sequence? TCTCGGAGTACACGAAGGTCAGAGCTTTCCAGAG
Reply: label 0

Task item: Is the recorded value of PBM binding z-score equal to or greater than 2 for this sequence? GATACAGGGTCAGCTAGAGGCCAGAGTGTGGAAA
Reply: label 0

Task item: Is the recorded value of PBM binding z-score equal to or greater than 2 for this sequence? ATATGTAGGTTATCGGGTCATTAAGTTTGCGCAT
Reply: label 1

Task item: Is the recorded value of PBM binding z-score equal to or greater than 2 for this sequence? TCTAGCAGGCCAGAGGGTCATTCAAGAGGTACGG
Reply: label 0

Task item: Is the recorded value of PBM binding z-score equal to or greater than 2 for this sequence? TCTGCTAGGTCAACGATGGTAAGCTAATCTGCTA
Reply: label 1

Task item: Is the recorded value of PBM binding z-score equal to or greater than 2 for this sequence? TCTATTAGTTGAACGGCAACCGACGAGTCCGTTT
Reply: label 1

Task item: Is the recorded value of PBM binding z-score equal to or greater than 2 for this sequence? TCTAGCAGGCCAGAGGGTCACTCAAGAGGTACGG
Reply: label 0

Task item: Is the recorded value of PBM binding z-score equal to or greater than 2 for this sequence? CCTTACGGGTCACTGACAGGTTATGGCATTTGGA
Reply: label 1

Task item: Is the recorded value of PBM binding z-score equal to or greater than 2 for this sequence? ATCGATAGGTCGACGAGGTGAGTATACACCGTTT
Reply: label 0
